Values compiled from ChEMBL document CHEMBL4725354.

Listing of recorded selectivity ratio by entry.
Tested on: ABCG2
experimental_details: Therapeutic ratio of GI50 for Growth inhibition of MDCK2 cells over expressing human ABCG2 to IC50 for inhibition of human ABCG2 expressed in MDCK2 cells co-expressing GFP preincubated for 30 mins followed by Hoechst 33342 addition and measured every 60 sec for 120 mins by fluorescence assay
Assay type: toxicity, cell-based
particulars: dog, MDCK2 cells overexpressing human ABCG2, probe Hoechst 33342; read-out: TI

In [3]: df
Out[3]:
                              sample_smiles  system  endpoint_value
0   Cc1cc(Nc2ccc(C#N)c(C)c2)nc(-c2ccccc2)n1   ABCG2             167
1  Cc1cc(Nc2ccc(C#N)c(C(F)(F)F)c2)nc(-c2ccccc2)n1   ABCG2             139
2  COc1ccc(Nc2cc(C)nc(-c3ccccc3)n2)cc1C(F)(F)F   ABCG2              14
3   Cc1cc(Nc2ccc(F)c(C#N)c2)nc(-c2ccccc2)n1   ABCG2             315
4  Cc1cc(Nc2ccc([N+](=O)[O-])cc2)nc(-c2ccccc2)n1   ABCG2             327

For ABCG2, provide selectivity ratio of Cc1cc(Nc2ccc(C#N)c(Br)c2)nc(-c2ccccc2)n1 please.
1220

###

system: Broad substrate specificity ATP-binding cassette transporter ABCG2 (Homo sapiens)
Sequence (Q9UNQ0 whole entry): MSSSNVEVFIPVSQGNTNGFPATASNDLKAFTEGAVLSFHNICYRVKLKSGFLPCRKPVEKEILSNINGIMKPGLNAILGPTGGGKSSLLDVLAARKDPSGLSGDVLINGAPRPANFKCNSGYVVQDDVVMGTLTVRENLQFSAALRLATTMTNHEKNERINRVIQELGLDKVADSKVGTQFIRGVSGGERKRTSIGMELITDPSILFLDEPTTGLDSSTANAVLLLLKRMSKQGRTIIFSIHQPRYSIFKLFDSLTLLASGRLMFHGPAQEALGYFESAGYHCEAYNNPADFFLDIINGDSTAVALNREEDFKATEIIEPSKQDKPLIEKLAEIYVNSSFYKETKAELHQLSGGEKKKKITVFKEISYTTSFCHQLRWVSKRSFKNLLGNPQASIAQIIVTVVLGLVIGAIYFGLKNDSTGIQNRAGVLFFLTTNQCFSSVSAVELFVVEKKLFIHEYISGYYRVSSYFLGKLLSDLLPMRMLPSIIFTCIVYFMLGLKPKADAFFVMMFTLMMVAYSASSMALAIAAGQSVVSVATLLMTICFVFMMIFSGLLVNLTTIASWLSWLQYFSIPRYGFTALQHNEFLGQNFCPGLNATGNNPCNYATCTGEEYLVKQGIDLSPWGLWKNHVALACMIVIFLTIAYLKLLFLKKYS
experimental_details: Inhibition of human ABCG2 expressed in MDCK2 cells co-expressing GFP preincubated for 30 mins followed by Hoechst 33342 addition and measured every 60 sec for 120 mins by fluorescence assay
Type: cell-based, MDCK-II
Listing of recorded pIC50 by entry.
When answering, recall that pIC50 equals minus log10 of the concentration in mol/L, and write that number alone.

Use the examples below as a reference point.
In [3]: df
Out[3]:
                              sample_smiles  endpoint_value
0     COc1cc(Nc2cc(C)nc(-c3ccccc3)n2)ccc1Br            6.55
1       Cc1cc(Nc2cccc(Br)c2)nc(-c2ccccc2)n1            6.05
2  COc1ccc(Nc2cc(C)nc(-c3ccccc3)n2)cc1C(F)(F)F            6.22
3  Cc1cc(Nc2ccc([N+](=O)[O-])cc2)nc(-c2ccccc2)n1            7.28
4  Cc1cc(Nc2cccc([N+](=O)[O-])c2)nc(-c2ccccc2)n1            6.89
5  Cc1cc(Nc2ccc(C#N)c(C#N)c2)nc(-c2ccccc2)n1            6.73
6  Cc1cc(Nc2ccc(C#N)c(C(F)(F)F)c2)nc(-c2ccccc2)n1            7.16
7   Cc1cc(Nc2ccc3c(c2)OCCO3)nc(-c2ccccc2)n1            6.09
8        Cc1cc(Nc2cccc(F)c2)nc(-c2ccccc2)n1            5.95
9       Cc1cc(Nc2cccc(Cl)c2)nc(-c2ccccc2)n1            6.09

For Broad substrate specificity ATP-binding cassette transporter ABCG2 (Homo sapiens), provide pIC50 of Cc1cc(Nc2ccc(F)c([N+](=O)[O-])c2)nc(-c2ccccc2)n1 please.
6.00

For Broad substrate specificity ATP-binding cassette transporter ABCG2 (Homo sapiens), provide pIC50 of Cc1cc(Nc2ccc(C#N)c(C)c2)nc(-c2ccccc2)n1 please.
7.03

For Broad substrate specificity ATP-binding cassette transporter ABCG2 (Homo sapiens), provide pIC50 of Cc1cc(Nc2ccc(C#N)c(Br)c2)nc(-c2ccccc2)n1 please.
6.92

For Broad substrate specificity ATP-binding cassette transporter ABCG2 (Homo sapiens), provide pIC50 of Cc1cc(Nc2ccc3c(c2)C(=O)NC3=O)nc(-c2ccccc2)n1 please.
6.60

For Broad substrate specificity ATP-binding cassette transporter ABCG2 (Homo sapiens), provide pIC50 of Cc1cc(Nc2ccc(CC#N)cc2)nc(-c2ccccc2)n1 please.
5.60

For Broad substrate specificity ATP-binding cassette transporter ABCG2 (Homo sapiens), provide pIC50 of Cc1cc(Nc2ccc([N+](=O)[O-])c(Cl)c2)nc(-c2ccccc2)n1 please.
7.23

For Broad substrate specificity ATP-binding cassette transporter ABCG2 (Homo sapiens), provide pIC50 of COc1ccc(Nc2cc(C)nc(-c3ccccc3)n2)cc1F please.
6.06

For Broad substrate specificity ATP-binding cassette transporter ABCG2 (Homo sapiens), provide pIC50 of Cc1cc(Nc2cccc(O)c2)nc(-c2ccccc2)n1 please.
6.60
